Experiment: Chemical stability of insulin formulations by RPC (reverse phase chromatography)
Type: physicochemical
Conditions: formulated human insulin, 3 Zn2+ per hexamer; 15° C.
reported_property: hphob2 (hydrophobic derivatives 2, insulin dimers) (% formed/year)

A. O=C(O)c1cc2cc(Br)ccc2cc1O [Example 533, 7-bromo-3-hydroxy-2-naphthoic acid]
B. O=C(O)COc1cccc(/C=C2\SC(=O)NC2=O)c1 [Example 461]
Which entry has a larger number for hphob2 (hydrophobic derivatives 2, insulin dimers), A or B ? I would appreciate it if you answered with the label of your choice.
A
(A: 0.42 % formed/year, B: 0.29 % formed/year)

* * *

Test: Chemical stability of insulin formulations by RPC (reverse phase chromatography)
Format: physicochemical
Details: formulated human insulin, 3 Zn2+ per hexamer; 30° C.
reported_property: hphob2 (hydrophobic derivatives 2, insulin dimers) (% formed/year)

Consider the following illustrative entries.
| compound | unit_string | reported |
| --- | --- | --- |
| O=C(O)/C=C/c1ccc(/C=C2\SC(=O)NC2=O)cc1 | % formed/year | 1.65 |
| O=C(O)c1cc2cc(Br)ccc2cc1O [Example 533, 7-bromo-3-hydroxy-2-naphthoic acid] | % formed/year | 2.25 |

P. CCN(CC)c1ccc(/C=C2\SC(=O)NC2=O)cc1
Q. O=C(O)COc1cccc(/C=C2\SC(=O)NC2=O)c1
Would you let me know which has the greater hphob2 (hydrophobic derivatives 2, insulin dimers) value, P or Q ? Please indicate the selected item by its label.
P
(P: 3.03 % formed/year, Q: 1.99 % formed/year)

Value source: patent US20050065066A1
